Source listed as patent US4175544A.

Tested on: lymph nodes (popliteal and iliac)
CONDITION: dog, in vivo
PROPERTY NAME: Histopathology of dosed nodes

In [3]: df
Out[3]:
                                   compound                  result
0  CCOC(=O)OCc1ccc(I)cc1 [p-iodobenzyl ethyl carbonate]  no change in the nodes
1  CCCCOC(=O)OCc1ccc(I)cc1 [p-iodobenzyl-n-butyl carbonate]  no change in the nodes

====

System: albino mice
ASSAY PROCEDURE: Initial toxicity screen: Approximate Lethal Dose by intraperitoneal injection (Deichmann and LeBlanc)
Type: in vivo
CONDITION: intraperitoneal, albino mice, neat liquid or suspension; footnote (b): largest dose administered (e, f, i, p, q)
PROPERTY NAME: Approximate Lethal Dose (ALD)

                                   compound    result
0  CCCCCOC(=O)OCc1ccc(I)cc1 [b, n-Amyl-p-Iodobenzyl Carbonate]   3 mL/kg
1  CC(C)CC(C)OC(=O)OCc1ccc(I)cc1 (stereo not shown) [d, p-Iodobenzyl-4-methyl-2-Pentyl Carbonate]   7 mL/kg
2  CCCCCCCCOC(=O)Oc1ccc(I)cc1 [k, n-Octyl-p-Iodphenyl Carbonate]   7 mL/kg
3  CCCCCCC(C)OC(=O)OCc1ccc(I)cc1 (stereo not shown) [i, 2-Octyl-p-Iodobenzyl Carbonate]  15 mL/kg
